These measurements were taken from patent US5756423A.

# Tested on: yellow nutsedge (Cyperus esculentus) (CYPES)
# test.details: post-emergent herbicidal test, yellow nutsedge
# Type: in vivo
# condition.parameters: Cyperus, post-emergence, post-emergent, 1.0 kg/ha (*), 17-21 days after application; read-out: CYPES percent control

molecule	pest or weed control at 1000 g/ha / %
O=P(O)(O)C(CNCC(F)(F)F)P(=O)(O)O	0
CC1CCCN(CC(P(=O)(O)O)P(=O)(O)O)C1C (stereo not shown)	15
CC1CCCN1CC(P(=O)(O)O)P(=O)(O)O (stereo not shown)	5
C=CCCNCC(P(=O)(O)O)P(=O)(O)O	20
CCC1CCCCN1CC(P(=O)(O)O)P(=O)(O)O (stereo not shown)	5
CCC(C)NCC(P(=O)(O)O)P(=O)(O)O (stereo not shown)	50
CCOCCNCC(P(=O)(O)O)P(=O)(O)O	0
C=CCN(CC=C)CC(P(=O)(O)O)P(=O)(O)O	10
CC1(C)CCCN(CC(P(=O)(O)O)P(=O)(O)O)C1	0
O=P(O)(O)C(CNCCc1ccccc1)P(=O)(O)O	10
